biological target: UniProtKB Q8TDV5; assay: GPR119 agonist cell-based hGPR119 HEK293-CRE β-lactamase reporter assay; details: hGPR119-HEK-CRE-β-lactamase cells, 16 hours incubation, one value per run
Sequence (Q8TDV5 whole entry): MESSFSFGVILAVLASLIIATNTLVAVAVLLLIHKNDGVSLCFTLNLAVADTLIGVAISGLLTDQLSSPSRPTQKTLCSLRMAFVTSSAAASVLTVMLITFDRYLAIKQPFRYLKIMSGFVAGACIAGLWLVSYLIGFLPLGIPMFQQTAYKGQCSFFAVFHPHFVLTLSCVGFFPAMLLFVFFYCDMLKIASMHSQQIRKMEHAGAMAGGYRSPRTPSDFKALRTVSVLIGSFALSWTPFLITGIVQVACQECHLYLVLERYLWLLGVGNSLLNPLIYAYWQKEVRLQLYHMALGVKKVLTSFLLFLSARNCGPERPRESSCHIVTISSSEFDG
pEC50: −log10 of the molar value.
VALUE TYPE: pEC50

1. CC(C)OC(=O)N1C[C@H]2COC[C@@H](C1)[C@H]2Oc1ncnc2c1CCN2c1ccc(S(C)(=O)=O)cc1F [Example 2] | 7.62

Sourced from patent US20120095028A1
